Items are presented alongside their recorded pKi.
Biological target: Rat A1 AR (Rattus norvegicus, UniProt P25099)
Sequence (P25099 1-326): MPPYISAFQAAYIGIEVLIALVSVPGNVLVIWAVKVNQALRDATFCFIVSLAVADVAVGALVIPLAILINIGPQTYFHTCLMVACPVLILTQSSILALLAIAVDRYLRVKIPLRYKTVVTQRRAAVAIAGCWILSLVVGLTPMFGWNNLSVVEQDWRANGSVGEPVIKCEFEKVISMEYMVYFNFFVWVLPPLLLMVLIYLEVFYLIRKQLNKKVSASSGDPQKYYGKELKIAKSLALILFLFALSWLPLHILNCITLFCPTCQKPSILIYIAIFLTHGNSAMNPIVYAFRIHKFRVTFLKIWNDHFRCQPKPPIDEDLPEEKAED
pKi: −log10 of the molar value.

For orientation, consider the following solved cases.
1. CCn1c(=O)n(Cc2ccco2)c(=O)c2c1nc(C#Cc1ccc(OC)c(OC)c1)n2C = 6.68
2. C#CCn1c(=O)c2c(nc(C#Cc3ccccc3)n2C)n(C)c1=O [drawing 452] = < 6.00
3. C#CCn1c(=O)c2c(nc(C#Cc3ccc(OC)c(OC)c3)n2C)n(CC)c1=O [drawing 487] = < 5.52
4. C#CCn1c(=O)c2c(nc(C#Cc3ccc(OC)c(OC)c3)n2C)n(CCCOC)c1=O [drawing 506] = < 6.00
5. C#CCn1c(=O)c2c(nc(C#Cc3cccc(Cl)c3)n2C)n(C)c1=O [drawing 461] = < 5.00
6. C#CCn1c(=O)c2c(nc(C#Cc3cccc(C)c3)n2C)n(CC)c1=O [drawing 486] = < 5.00
7. C#CCn1c(=O)c2c(nc(C#Cc3cccc(OC(C)=O)c3)n2C)n(C)c1=O [drawing 472] = 5.93
8. C#CCn1c(=O)c2c(nc(C#Cc3cccc(OC)c3)n2C)n(CC2CO2)c1=O (centres unmarked) = < 6.00
9. C#CCn1c(=O)c2c(nc(C#Cc3ccc(OC)c(OC)c3)n2C)n(CCC)c1=O [drawing 515] = ≤ 6.00
10. C#CCn1c(=O)c2c(nc(C#Cc3cccc(C)c3)n2C)n(CCCO)c1=O [drawing 534] = 6.33

Q: For C#CCn1c(=O)c2c(nc(C#Cc3ccc(OC)c(OC)c3)n2C)n(C(C)C)c1=O [drawing 516] , what is its reported pKi?
Ans: ≤ 6.00

Value source: patent US20080221134A1
